- ASSAY SYSTEM: T1, human LIGHT (TNFSF14), full length, membrane-bound (214E allele) (human, UniProt O43557 1-240)
- T1 construct: also called membrane LIGHT; human membrane LIGHT
- T1 sequence (O43557 whole entry K214E): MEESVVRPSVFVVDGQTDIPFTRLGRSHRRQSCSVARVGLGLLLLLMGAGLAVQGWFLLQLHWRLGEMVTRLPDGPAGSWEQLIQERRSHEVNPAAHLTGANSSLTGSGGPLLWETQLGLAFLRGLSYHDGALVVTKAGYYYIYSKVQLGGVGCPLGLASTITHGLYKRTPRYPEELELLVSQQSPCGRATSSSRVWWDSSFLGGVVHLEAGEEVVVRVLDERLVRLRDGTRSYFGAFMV
- METHOD DESCRIPTION: flow cytometry, EL4-LIGHT cells
ASSAY READOUT: EC50 (nM)

[[record]]
binder = "3D12_var4 (antibody, human IgG4, V domains shown, human IgG4 (S241P, L248E, Kabat); also called 3D12 VL1VH4 (var4)) VH: QVQLVQSGAEVKKPGASVKVSCKASGYTFTDSEMHWVRQAPGQGLEWMGEIDPETGGTAYAQKFQGRVTLTADKSTSTAYMELSSLRSEDTAVYYCSRETDYFFDYWGQGTLVTVSS VL: DIQMTQSPSSLSASVGDRVTITCGASENIYGALNWYQRKQGKAPQLLIYGATNLADGVSSRFSGSGSGRDYTLTISSLQPEDVATYYCQNVLSTPWTFGQGTKLEIKR"
readout_value = 0.32

[[record]]
binder = "3D12_var5 (antibody, human IgG4, V domains shown, human IgG4 (S241P, L248E, Kabat); also called 3D12 VL2VH1 (var5)) VH: QVQLVQSGAEVKKPGASVKVSCKASDYTFTDSEIHWVRQAPGQGLEWIGEIDPETGGTAYNQKFKGRATLTADKSTSTAYMELSSLRSEDTAVYYCSRETDYFFDYWGQGTLVTVSS VL: DIQMTQSPSSLSASVGDRVTITCGASENIYGALNWYQRKQGKAPKLLIYGATNLADGVPSRFSGSGSGRDYTLTISSLQPEDVATYYCQNVLSTPWTFGQGTKLEIKR"
readout_value = 0.33

[[record]]
binder = "3B04 (antibody, human IgG4, V domains shown, chimeric: mouse variable domains on human IgG4 HC (S-to-P and L-to-E at 248) and human CL; also called Parental 3B04; 3B04 chimeric) VH: QVQLQQPGAELVRPGASVTLSCKASGYTFTDYEMHWVKQTPVHGLEWIGEIDPETGDTAYSQKFKGKATLTADKSSSTAYMEFRSLTSEDSAVYYCSRETDYFFDYWGQGTTLTVSS VL: DIQMTQTPASLSASVGETVTITCGASENIYGALNWYQRKQGKSPQLLIYGATNLADGMSSRFSGSGSGRQYSLKISSLHPDDFATYYCQNVLTTPWTFGGGTKLEIKR"
readout_value = 0.12

[[record]]
binder = "3B04_var12 (antibody, human IgG4, V domains shown, human IgG4 (S241P, L248E, Kabat); also called 3B04 VL3VH4 (var12)) VH: QVQLVQSGAEVKKPGASVKVSCKASGYTFTDYEMHWVRQAPGQGLEWMGEIDPETGDTAYAQKFQGRVTLTADKSTSTAYMELSSLRSEDTAVYYCSRETDYFFDYWGQGTLVTVSS VL: DIQMTQSPSSLSASVGDRVTITCGASENIYGALNWYQQKPGKAPKLLIYGATNLADGVPSRFSGSGSGRDYTLTISSLQPEDFATYYCQNVLTTPWTFGQGTKLEIKR"
readout_value = 0.24

[[record]]
binder = "3D12_var12 (antibody, human IgG4, V domains shown, human IgG4 (S241P, L248E, Kabat); also called 3D12 VL3VH4 (var12)) VH: QVQLVQSGAEVKKPGASVKVSCKASGYTFTDSEMHWVRQAPGQGLEWMGEIDPETGGTAYAQKFQGRVTLTADKSTSTAYMELSSLRSEDTAVYYCSRETDYFFDYWGQGTLVTVSS VL: DIQMTQSPSSLSASVGDRVTITCGASENIYGALNWYQQKPGKAPKLLIYGATNLADGVPSRFSGSGSGRDYTLTISSLQPEDVATYYCQNVLSTPWTFGQGTKLEIKR"
readout_value = 0.33

